# method-notes: Human HepG2 cell viability assay in 384 well format
# Type: toxicity, cell-based
# Set-up: dose 125 nL, time 70.5 hour; concentration not given beside the values
# experimental-conditions: HepG2 cells, read-out: Inhibition
reported-endpoint: cytotoxicity at 70.5 h
// unit must come after the numeric part

1. O=C(NCc1ccccn1)NC1CCCN(c2ncccn2)C1 (stereo unspecified)
-9.45%
2. CN(C)c1ncc2c(n1)N(C)CCN(CC1CC1)C2=O
-2.69%
3. Cn1nnc2c1CCN(Cc1ccccc1)C2COCC1CC1 (stereo unspecified)
-3.64%

**Q:** Please give the measured cytotoxicity at 70.5 h for this molecule: CC(C)N1CCOC[C@H]1c1nc(C(C)(C)C)c[nH]1
**A:** 0.329%

**Q:** Try this molecule too: O=C(CN1CCCC(c2ccn[nH]2)C1)Nc1nncs1 (stereo unspecified)
**A:** 1.3%

// data source = ChEMBL document CHEMBL3507680
